Target: CFTR (Homo sapiens)
Sequence (P13569 with tags, fused parts or gaps DEL508-508): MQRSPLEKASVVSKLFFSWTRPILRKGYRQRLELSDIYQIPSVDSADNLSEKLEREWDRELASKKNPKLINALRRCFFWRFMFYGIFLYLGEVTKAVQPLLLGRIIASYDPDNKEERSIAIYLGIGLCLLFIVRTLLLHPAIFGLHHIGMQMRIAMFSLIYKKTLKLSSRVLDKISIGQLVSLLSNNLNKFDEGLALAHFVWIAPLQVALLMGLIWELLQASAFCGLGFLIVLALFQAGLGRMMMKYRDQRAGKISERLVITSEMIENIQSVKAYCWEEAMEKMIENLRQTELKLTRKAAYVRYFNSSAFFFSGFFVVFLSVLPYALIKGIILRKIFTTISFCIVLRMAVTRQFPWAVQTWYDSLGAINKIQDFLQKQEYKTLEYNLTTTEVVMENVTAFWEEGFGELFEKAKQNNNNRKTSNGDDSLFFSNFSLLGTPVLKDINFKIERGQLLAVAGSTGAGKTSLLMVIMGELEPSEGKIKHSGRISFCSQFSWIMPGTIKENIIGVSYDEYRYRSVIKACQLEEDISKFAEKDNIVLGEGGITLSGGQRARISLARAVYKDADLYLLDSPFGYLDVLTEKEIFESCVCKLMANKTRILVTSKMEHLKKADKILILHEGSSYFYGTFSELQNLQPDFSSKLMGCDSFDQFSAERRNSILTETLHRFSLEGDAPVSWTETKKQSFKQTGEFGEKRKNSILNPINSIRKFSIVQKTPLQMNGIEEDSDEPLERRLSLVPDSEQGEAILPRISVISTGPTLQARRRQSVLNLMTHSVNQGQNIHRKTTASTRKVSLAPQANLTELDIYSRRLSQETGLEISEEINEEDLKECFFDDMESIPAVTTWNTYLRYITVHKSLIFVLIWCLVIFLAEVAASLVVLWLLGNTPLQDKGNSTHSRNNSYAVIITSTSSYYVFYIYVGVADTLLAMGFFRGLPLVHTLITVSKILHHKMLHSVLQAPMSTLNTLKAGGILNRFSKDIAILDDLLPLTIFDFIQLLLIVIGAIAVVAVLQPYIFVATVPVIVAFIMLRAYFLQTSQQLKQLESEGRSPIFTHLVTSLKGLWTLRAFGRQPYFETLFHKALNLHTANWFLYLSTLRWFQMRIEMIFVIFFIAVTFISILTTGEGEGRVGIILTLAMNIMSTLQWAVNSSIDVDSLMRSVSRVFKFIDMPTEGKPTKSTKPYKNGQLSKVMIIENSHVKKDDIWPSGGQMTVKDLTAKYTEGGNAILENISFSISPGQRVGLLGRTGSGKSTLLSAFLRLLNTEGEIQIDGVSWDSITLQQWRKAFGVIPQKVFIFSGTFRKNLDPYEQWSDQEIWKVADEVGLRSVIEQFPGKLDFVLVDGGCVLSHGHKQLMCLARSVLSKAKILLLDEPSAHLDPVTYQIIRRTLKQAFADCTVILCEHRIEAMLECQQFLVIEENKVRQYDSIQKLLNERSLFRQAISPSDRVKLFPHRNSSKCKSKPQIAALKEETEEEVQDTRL
Experiment: Membrane Potential Dye, Enteroid Assay A
Format: cell-based
Conditions: Table 8
Procedure: Base medium (ADF+++) consisted of Advanced DMEM/Ham's F12, 2 mM Glutamax, 10 mM HEPES, […] penicillin/streptomycin. Bath 1 Buffer consisted of 1 mM MgCl2, 160 mM NaCl, 4.5 mM KCl, 10 mM HEPES, 10 mM Glucose, 2 mM CaCl2). […] Briefly, cells were washed 5 times in Bath 1 Buffer. […] Chloride transport was initiated by addition of Chloride Free Dye Stimulation Solution and the fluorescence signal was read for 15 min. […]
VALUE TYPE: Ent. A Max Activity

Examples with answers:
# COMPOUND, ASSAY TARGET, RESULT
rows = [
    ("Cc1cccc(C)c1-c1cc2nc(n1)NS(=O)(=O)c1cccc(c1)C(=O)N[C@H](CC1CCCCC1)[C@H](C)O2", "CFTR (Homo sapiens)", "+++ (+++ is >60%)"),
    ("Cc1cccc(C)c1-c1cc2nc(n1)NS(=O)(=O)c1cccc(c1)C(=O)NCC(c1cccc(C(C)(C)C)c1)O2 (stereo not drawn)", "CFTR (Homo sapiens)", "+++ (+++ is >60%)"),
    ("Cc1cccc(C)c1-c1cc2nc(n1)NS(=O)(=O)c1cccc(c1)C(=O)NCC(c1ccc(C(C)(C)C#N)cc1)O2 (stereo not drawn)", "CFTR (Homo sapiens)", "+ (+ is <30%)"),
    ("Cc1cccc(C)c1-c1cc2nc(n1)NS(=O)(=O)c1cccc(c1)C(=O)N[C@@H](CC1CCC1)[C@@H](c1ccc(C(C)(C)C)cc1)O2 (stereo in doubt)", "CFTR (Homo sapiens)", "+++ (+++ is >60%)"),
    ("Cc1cccc(C)c1-c1cc2nc(n1)NS(=O)(=O)c1cccc(c1)C(=O)NCC(c1ccc3ccccc3c1)O2 (stereo not drawn)", "CFTR (Homo sapiens)", "+++ (+++ is >60%)"),
    ("Cc1cccc(C)c1-c1cc2nc(n1)NS(=O)(=O)c1cccc(c1)C(=O)NCC(c1ccc3c(c1)OCCO3)O2 (stereo not drawn)", "CFTR (Homo sapiens)", "+++ (+++ is >60%)"),
    ("Cc1cccc(C)c1-c1cc2nc(n1)NS(=O)(=O)c1cccc(c1)C(=O)N[C@H](CC1CCCCC1)[C@@H](C)O2", "CFTR (Homo sapiens)", "+++ (+++ is >60%)"),
    ("Cc1cccc(C)c1-c1cc2nc(n1)NS(=O)(=O)c1cc(cc(-c3ccc(C(C)(C)C)cc3)c1)C(=O)N[C@H](CC(C)C)CO2", "CFTR (Homo sapiens)", "+ (+ is <30%)"),
]

*Q* State, in one line, measured Ent. A Max Activity of Cc1cccc(C)c1-c1cc2nc(n1)NS(=O)(=O)c1cccc(c1)C(=O)N[C@H](CCC(C)(C)C)CO2 (single isomer, unassigned)
*A* +++ (+++ is >60%)

*Q* State, in one line, measured Ent. A Max Activity of Cc1cccc(C)c1-c1cc2nc(n1)NS(=O)(=O)c1cccc(c1)C(=O)NCC(c1ccc3c(c1)C(C)(C)CCC3(C)C)O2 (stereo not drawn)
*A* +++ (+++ is >60%)

*Q* State, in one line, measured Ent. A Max Activity of Cc1cccc(C)c1-c1cc2nc(n1)NS(=O)(=O)c1cccc(c1)C(=O)NCC(c1ccc(C(C)(C)C)cc1)O2 (stereo not drawn)
*A* +++ (+++ is >60%)

*Q* State, in one line, measured Ent. A Max Activity of `Cc1cccc(C)c1-c1cc2nc(n1)NS(=O)(=O)c1cccc(n1)C(=O)N[C@H](CC1CCCCC1)CO2`
*A* +++ (+++ is >60%)

*Q* State, in one line, measured Ent. A Max Activity of Cc1cccc(C)c1-c1cc2nc(n1)NS(=O)(=O)c1cccc(c1)C(=O)NCC(c1ccc(P(C)(C)=O)cc1)O2 (stereo not drawn)
*A* + (+ is <30%)

*Q* State, in one line, measured Ent. A Max Activity of Cc1cccc(C)c1-c1cc2nc(n1)NS(=O)(=O)c1cccc(c1)C(=O)NCC(c1ccc(Cl)cc1)O2 (stereo not drawn)
*A* +++ (+++ is >60%)

*Q* State, in one line, measured Ent. A Max Activity of Cc1cccc(C)c1-c1cc2nc(n1)NS(=O)(=O)c1cccc(c1)C(=O)NCC(C1CCOCC1)O2 (stereo not drawn)
*A* + (+ is <30%)

*Q* State, in one line, measured Ent. A Max Activity of Cc1cccc(C)c1-c1cc2nc(n1)NS(=O)(=O)c1cccc(c1)C(=O)NCC(c1ccc(OCC3(C(F)(F)F)CC3)cc1)O2 (stereo not drawn)
*A* +++ (+++ is >60%)

*Q* State, in one line, measured Ent. A Max Activity of `Cc1cccc(C)c1-c1cc2nc(n1)NS(=O)(=O)c1cccc(c1)C(=O)NC[C@@H](CC(C)C)O2`
*A* + (+ is <30%)

*Q* State, in one line, measured Ent. A Max Activity of Cc1cccc(C)c1-c1cc2nc(n1)NS(=O)(=O)c1cccc(c1)C(=O)NCC(Cc1ccc(C(C)(C)C)cc1)O2 (stereo not drawn) [Compound 243]
*A* +++ (+++ is >60%)

All figures here come from patent US20230382924A1.
